Measured values drawn from PubChem BioAssay (NCI) for this set.

Test system: MDA-MB-435
Permitted responses: active, inactive

Asked: Any idea what this test logged for C[Se]C(=O)CC1=C2C=C(F)C=CC2/C(=C\c2ccc(S(C)=O)cc2)C1C (stereo unspecified) ?
Given back: active

Asked: Any idea what this test logged for CC(=O)/C(C)=N/N/C(N)=N\S(=O)(=O)c1cc(C(=O)Nc2ccccc2)c(Cl)cc1SCc1ccccc1 ?
Given back: inactive

Asked: Any idea what this test logged for C=C(C)C1/C=C(/C(C)C)CC[C@]2(C)O[C@@H]2CC[C@H](C)CC1=O (stereo partly specified) ?
Given back: inactive

Asked: Any idea what this test logged for CN(C)c1ccc(/C=C/c2ccnc3ccccc23)cc1 ?
Given back: inactive

Asked: Any idea what this test logged for Oc1c(CN2CCCC2)cc(COCc2ccccc2)c2cccnc12 ?
Given back: inactive

Asked: Any idea what this test logged for C[C@@H]1CC[C@@]2(OC1)O[C@H]1C[C@H]3[C@@H]4CC=C5C[C@@H](O[C@@H]6O[C@H](CO)[C@@H](O[C@@H]7O[C@@H](CO)[C@H](O)[C@H]7O)[C@H](O)[C@H]6O[C@@H]6O[C@@H](C)[C@H](O)[C@@H](O)[C@H]6O)CC[C@]5(C)[C@H]4CC[C@]3(C)[C@H]1[C@@H]2C ?
Given back: inactive

* * *

Give TGI for every item shown.
System: HCT-15 colon
assay-notes: NCI tumour cell line growth inhibition, 48 h
Return type: number; implicit unit µM.

Asked: Field request: TGI | item: C=CCn1c(=O)c(C)cn(/C(=C/C(=O)OCC)C(=O)OCC)c1=O
Given back: 13.7

Asked: Field request: TGI | item: C=C(Cl)C(Cl)(CBr)CCC(Cl)C(C)(C)Cl (stereo not given)
Given back: 14.7

Asked: Field request: TGI | item: Oc1c(CN2CCCC2)cc(COCc2ccccc2)c2cccnc12
Given back: 2.9

Asked: Field request: TGI | item: Fc1ccccc1C1CC(C(c2ccccc2)c2ccccc2)=Nc2ccccc2S1 (stereo not given)
Given back: 30.8

Asked: Field request: TGI | item: CC(C)[Si](OC1=CCCCCC12C(=O)N(C)c1ccccc12)(C(C)C)C(C)C (stereo not given)
Given back: 33.8

* * *

System: DU-145 prostate
assay-notes: NCI tumour cell line growth inhibition, 48 h
Give TGI for every item shown.

Asked: Field request: TGI | item: N#Cc1c(NC(=S)NCc2ccccc2)sc2c1CCN(N1CCc3c(sc(NC(=S)NCc4ccccc4)c3C#N)C1)C2
Given back: > 100 µM

Asked: Field request: TGI | item: Cn1c(O)c(C(=O)Nc2ccc([N+](=O)[O-])cc2)c(=O)n(C)c1=S
Given back: 11.5 µM

Asked: Field request: TGI | item: COc1ccccc1-n1c(SCc2cc(OC)c(OC)c(OC)c2)nc2ccc(Cl)cc2c1=O
Given back: > 100 µM

Asked: Field request: TGI | item: O=C(/C=C\c1ccnc2ccccc12)c1ccc([N+](=O)[O-])cc1
Given back: > 100 µM

Asked: Field request: TGI | item: CN1CCN(c2ccc3[nH]c(C4=C(O)c5nc(CO)n(C)c5C(=O)C4=O)nc3n2)CC1
Given back: > 100 µM

Asked: Field request: TGI | item: NNC(=O)c1n[nH]nc1SSc1n[nH]nc1C(=O)NN
Given back: > 100 µM

Asked: Field request: TGI | item: O=[As](O)(O)c1ccc(Cc2ccc([As](=O)(O)O)cc2)cc1
Given back: 1.17 µM

Asked: Field request: TGI | item: C=C(C)C1/C=C(/C(C)C)CC[C@]2(C)O[C@@H]2CC[C@H](C)CC1=O (stereo not given in full)
Given back: > 100 µM

Asked: Field request: TGI | item: O=Cc1coc2ccccc2c1=O
Given back: > 100 µM

Asked: Field request: TGI | item: CCNCC(O)c1ccc(N)c([N+](=O)[O-])c1 (stereo not given)
Given back: > 100 µM
